- Test system: genetically hypertensive rat (SHR)
- ASSAY_NAME: Antihypertensive activity in the genetically hypertensive rat (SHR), oral, arterial pressure measured 3 hours later
- Type: in vivo
- RUN_CONDITIONS: SHR male rats, groups of 10, 3 hours after oral treatment, read-out: Antihypertensive activity (SHR) M.A.D. (minimum dose significantly reducing the mean arterial pressure)
Field: minimal effective dose. Provide a value for each of the molecules that follow.
The answer is to be given in mg/kg; state only the numeric part.

Reported minimal effective dose of `CN(C)C(=NCCCN1CCC(c2noc3cc(F)ccc23)CC1)NC#N` : 2

So for `CN=C(NC#N)NCCN1CCC(c2noc3cc(F)ccc23)CC1` , the logged minimal effective dose turned out to be 2

get_value(item= `CN(C)C(=NCCN1CCC(C(=O)c2ccc(F)cc2)CC1)NC#N` , readout=minimal effective dose) returns 10

Item: O=C(c1ccc(F)cc1)C1CCN(CCn2c(=O)[nH]c3ccccc3c2=O)CC1 [Ketanserin, reference compound] | minimal effective dose: 25

minimal effective dose reported for this molecule `CN=C(NC#N)NCCCCN1CCC(C(=O)c2ccc(F)cc2)CC1` : 10

Lab note: `CNC(=C[N+](=O)[O-])NCCN1CCC(c2noc3cc(F)ccc23)CC1` gave minimal effective dose of 5

Input `CN=C(NC#N)NCCCN1CCC(c2noc3cc(F)ccc23)CC1` . Output minimal effective dose: 0.5

Item: `CN(C)C(=NC#N)NCCCN1CCC(C(=O)c2ccc(F)cc2)CC1` | minimal effective dose: 5

Per the records, this molecule ( `CNC(=NC#N)NCCN1CCC(C(=O)c2ccc(F)cc2)CC1` ) has minimal effective dose equal to 10

molecule `CCNC(=NCCCN1CCC(c2noc3cc(F)ccc23)CC1)NC#N` , minimal effective dose observed: 0.5

Lab note: `N#CNC(=N)NCCCN1CCC(c2noc3cc(F)ccc23)CC1` gave minimal effective dose of 5

Record `CNC(=C[N+](=O)[O-])NCCN1CCC(C(=O)c2ccc(F)cc2)CC1` . Reported minimal effective dose: 10

get_value(item= `CN=C(NC#N)NCCCN1CCC(C(=O)c2ccc(F)cc2)CC1` , readout=minimal effective dose) returns 5

###

- ASSAY_NAME: Toxicity, 50 lethal dose on the rat using the oral route
- RUN_CONDITIONS: in vivo, oral, LD50 / active dose, read-out: 50 lethal dose as multiple of the active dose in this species
PARAMETER: selectivity ratio

Input `CNC(=NC#N)NCCN1CCC(C(=O)c2ccc(F)cc2)CC1` . Output selectivity ratio: 170

###

- Tested on: isolated rat aorta
- ASSAY_NAME: Antagonism towards serotonin in vitro on the isolated rat aorta (serotonin-triggered contraction)
- RUN_CONDITIONS: contraction by serotonin 20 μM, product added 10 min after serotonin, left 15 min, minimum of 3 aortas, read-out: Isolated rat aorta antiserotonin activity IC 50
Field: IC50. Provide a value for each of the compounds that follow.
The reply should be a number in nM, with the unit left off.

IC50 reading for `CN=C(NC#N)NCCCCN1CCC(C(=O)c2ccc(F)cc2)CC1` : 670

According to the records, this compound `CN=C(NC#N)NCCCN1CCC(c2noc3cc(F)ccc23)CC1` displays IC50 of 50

The reported IC50 of the compound `CN=C(NC#N)NCCN1CCC(c2noc3cc(F)ccc23)CC1` was 90

Reported IC50 ( `CNC(=C[N+](=O)[O-])NCCN1CCC(c2noc3cc(F)ccc23)CC1` ) = 380

So, O=C(c1ccc(F)cc1)C1CCN(CCn2c(=O)[nH]c3ccccc3c2=O)CC1 [Ketanserin, reference compound] ? Its IC50 was 150

Documented IC50 of `CCNC(=NCCCN1CCC(c2noc3cc(F)ccc23)CC1)NC#N` : 40

For record `N#CNC(=N)NCCCN1CCC(c2noc3cc(F)ccc23)CC1` the listed IC50 is 20

Record summary for `CN(C)C(=NC#N)NCCCN1CCC(C(=O)c2ccc(F)cc2)CC1` : reported IC50 = 1950

Lab book: IC50 of `CN(C)C(=NCCN1CCC(C(=O)c2ccc(F)cc2)CC1)NC#N` noted as 460

Recorded result, `CN(C)C(=NCCCN1CCC(c2noc3cc(F)ccc23)CC1)NC#N` , IC50: 100

The compound `CNC(=NC#N)NCCN1CCC(C(=O)c2ccc(F)cc2)CC1` showed IC50 equal to 530

The compound `CNC(=C[N+](=O)[O-])NCCN1CCC(C(=O)c2ccc(F)cc2)CC1` showed IC50 equal to 2900

Value of measured IC50 for the entry `CN=C(NC#N)NCCCN1CCC(C(=O)c2ccc(F)cc2)CC1` : 170
